Test system: DA-autoreceptors
Test: Inhibition of spontaneous locomotor activity (motility inhibition) in rats
Type: in vivo, rat (Wistar)
Conditions: doses calculated as the free amine
assay-metric: Motility Inh. rats (sc) ED50 (µmol/kg)
The answer is to be given in µmol/kg; state only the numeric part.

| compound | unit-info | Motility Inh. rats (sc) ED50 |
| --- | --- | --- |
| CCN(CC)CC1CCc2ccc(O)cc21 (single isomer, unassigned; (-)) [Lu 22-105] | µmol/kg | 0.87 |
| CCCN(CCC)CC1CCc2ccc(O)cc21 (single isomer, unassigned; (-)) [Lu 22-049] | µmol/kg | 0.26 |
| CCCN(CCC)CC1CCc2ccc(O)cc21 (single isomer, unassigned; (-)) [Lu 22-050] | µmol/kg | 1.3 |

Shift focus to the following entry.
Quick one: Motility Inh. rats (sc) ED50 of CCCN(C)CC1COc2ccc(O)cc21 (single isomer, unassigned; (-)) [Lu 25-021] ? 5.4

* * *

Catalogue of molecules with associated 6-OHDA Contr. Circle. rats (sc) ED50
System: DA-receptor
Test: Contralateral circling in rats with unilateral 6-hydroxy-DA (6-OHDA) lesions
Type: in vivo, rat (Wistar)
Conditions: 6-OHDA-lesioned rats, doses calculated as the free amine
The answer is to be given in µmol/kg; state only the numeric part.

Below, each entry is followed by its recorded 6-OHDA Contr. Circle. rats (sc) ED50 result.
| molecule | assay-metric | unit-info | measured |
| --- | --- | --- | --- |
| CCN(CC)CC1CCc2ccc(O)cc21 (stereo not drawn) [Lu 21-096, N,N-diethyl-6-hydroxy-1-indanmethylamine] | 6-OHDA Contr. Circle. rats (sc) ED50 | µmol/kg | 0.19 |
| CCN(CC)CC1CCc2ccc(OC(=O)C(C)(C)C)cc21 (stereo not drawn) | 6-OHDA Contr. Circle. rats (sc) ED50 | µmol/kg | 0.33 |
| CCCN(CCC)CC1CSc2ccc(O)cc21 (stereo not drawn) | 6-OHDA Contr. Circle. rats (sc) ED50 | µmol/kg | 4.6 |

Quick one: 6-OHDA Contr. Circle. rats (sc) ED50 of CCCN(CCC)CC1COc2ccc(O)cc21 (single isomer, unassigned; (-)) [Lu 24-121] ? 1.7

Check CCCN(C)CC1COc2ccc(O)cc21 (single isomer, unassigned; (-)) [Lu 25-021] too. 5.2

Check CCCN(CCC)CC1CCc2ccc(O)cc21 (single isomer, unassigned; (-)) [Lu 22-049] too. 0.18

Check CCN(CC)CC1COc2ccc(O)cc21 (stereo not drawn) too. 1.2

Check CCCN(CCC)CC1CCc2ccc(O)cc21 (stereo not drawn) [Lu 21-051] too. 0.35

* * *

System: DA-autoreceptors
Assay: Inhibition of spontaneous locomotor activity (motility inhibition) in rats
Assay type: in vivo, rat (Wistar)
Settings: doses calculated as the free amine
Please mark class 1 if the recorded Motility Inh. rats (sc) ED50 is equal to or greater than 4 µmol/kg, and class 0 if it falls below.

Kindly determine if Motility Inh. rats (sc) ED50 recorded for CCCN(CCC)CC1CCc2ccc(OC)cc21 (stereo not shown) is above or exactly 4 µmol/kg. class 1

* * *

Tested on: postsynaptic DA-receptors
Assay: Reversal of locomotor depression (hypomotility) in reserpine plus alpha-methyl-p-tyrosine pretreated rats
Format: in vivo, rat (Wistar)
Note that class boundaries on Reserpin α-Mt Rev. rats (sc) ED50 are lower level = under 10 µmol/kg, middle level = from 10 µmol/kg up to 60 µmol/kg, upper level = 60 µmol/kg and over

| molecule | label-class |
| --- | --- |
| CCN(CC)CC1CCc2ccc(O)cc21 (single isomer, unassigned; (-)) [Lu 22-105] | upper level |
| CCCN(CCC)CC1COc2ccc(O)cc21 (single isomer, unassigned; (-)) [Lu 24-121] | upper level |
| CCCN(C)CC1COc2ccc(O)cc21 (single isomer, unassigned; (-)) [Lu 25-021] | upper level |
| CN(C)CC1CCc2ccc(O)cc21 (centres unmarked) | middle level |
| CCCN(CCC)CC1CSc2ccc(O)cc21 (centres unmarked) | middle level |

Which class is correct for the following molecule? CCN(CC)CC1CCc2ccc(O)cc21 (single isomer, unassigned; (+)) [Lu 22-106] middle level

Check CN1CCc2cccc3c2[C@H]1Cc1ccc(O)c(O)c1-3 [Apomorphine, apomorphine, reference compound] too. lower level

Check CCCN(C)CC1COc2ccc(O)cc21 (single isomer, unassigned; (+)) [Lu 25-020] too. upper level
